Entries and their IC50
biological target: Vascular endothelial growth factor receptor 2 (Homo sapiens, UniProt P35968); assay: Displacement of kinase tracer 236 from recombinant human His-tagged KDR cytoplasmic domain (789 to 1356 residues) expressed in baculovirus-infected insect cells measured after 5 hrs by TR-FRET based LanthaScreen assay
Sequence (P35968 whole entry, the tested form may be a part): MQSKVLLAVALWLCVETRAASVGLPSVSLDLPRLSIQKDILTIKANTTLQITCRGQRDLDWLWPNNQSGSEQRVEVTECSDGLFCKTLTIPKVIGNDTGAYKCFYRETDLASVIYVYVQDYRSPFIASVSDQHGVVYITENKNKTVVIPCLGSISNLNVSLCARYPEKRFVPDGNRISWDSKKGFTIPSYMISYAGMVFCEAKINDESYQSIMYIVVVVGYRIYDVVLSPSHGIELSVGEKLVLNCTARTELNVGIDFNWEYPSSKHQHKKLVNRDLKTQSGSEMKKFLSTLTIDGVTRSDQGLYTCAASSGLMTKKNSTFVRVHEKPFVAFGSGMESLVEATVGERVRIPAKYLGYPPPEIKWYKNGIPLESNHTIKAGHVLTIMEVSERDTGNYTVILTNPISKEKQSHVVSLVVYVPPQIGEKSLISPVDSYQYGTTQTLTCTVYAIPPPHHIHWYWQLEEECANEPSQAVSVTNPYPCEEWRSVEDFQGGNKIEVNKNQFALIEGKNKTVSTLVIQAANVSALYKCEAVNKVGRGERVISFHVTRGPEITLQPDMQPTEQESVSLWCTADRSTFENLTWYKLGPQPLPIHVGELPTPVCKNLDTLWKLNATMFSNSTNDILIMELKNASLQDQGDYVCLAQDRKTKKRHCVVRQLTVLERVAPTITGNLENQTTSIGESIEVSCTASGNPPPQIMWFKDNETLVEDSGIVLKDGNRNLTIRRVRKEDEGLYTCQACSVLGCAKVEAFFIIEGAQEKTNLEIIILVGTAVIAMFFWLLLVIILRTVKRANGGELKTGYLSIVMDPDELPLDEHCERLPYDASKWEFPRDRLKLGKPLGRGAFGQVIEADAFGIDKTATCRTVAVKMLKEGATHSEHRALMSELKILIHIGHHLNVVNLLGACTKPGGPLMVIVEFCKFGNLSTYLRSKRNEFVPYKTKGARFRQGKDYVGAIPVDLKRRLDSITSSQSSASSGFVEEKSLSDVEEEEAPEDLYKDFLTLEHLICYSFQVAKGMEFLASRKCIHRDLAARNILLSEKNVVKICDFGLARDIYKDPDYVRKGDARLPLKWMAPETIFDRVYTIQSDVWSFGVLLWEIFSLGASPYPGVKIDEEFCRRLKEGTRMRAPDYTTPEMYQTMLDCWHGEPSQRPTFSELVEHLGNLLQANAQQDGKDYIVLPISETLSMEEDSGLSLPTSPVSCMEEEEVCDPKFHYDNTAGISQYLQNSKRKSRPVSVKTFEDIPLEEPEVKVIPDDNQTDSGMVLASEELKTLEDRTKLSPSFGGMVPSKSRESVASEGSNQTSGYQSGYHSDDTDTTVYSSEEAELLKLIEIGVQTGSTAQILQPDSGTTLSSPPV

The following compounds have reported results that may help.
Nc1ncnc2c3c(n(-c4ccc(NC(=O)Cc5ccc6c(c5)CCC6)cc4)c12)CCC3 ... > 200 nM
Nc1ncnc2c3c(n(-c4ccc(NC(=O)Cc5cc(Cl)ccc5F)cc4)c12)CCC3 ... > 200 nM
Cc1ccc(F)c(NC(=O)Cc2ccc(-n3c4c(c5ncnc(N)c53)COC4)cc2)c1 ... > 200 nM
Nc1ncnc2c3c(n(-c4ccc(CC(=O)Nc5ccc(C(F)(F)F)nc5)cc4)c12)CCC3 ... > 200 nM
Nc1ncnc2c3c(n(-c4ccc(CC(=O)Nc5ccc(Cl)c(C(F)(F)F)c5)cc4)c12)COC3 ... > 200 nM
COc1cc(CC(=O)Nc2ccc(-n3c4c(c5ncnc(N)c53)COC4)cc2)ccc1C ... > 200 nM
Nc1ncnc2c3c(n(-c4ccc(CC(=O)NC5CCOCC5)cc4)c12)CCC3 ... > 200 nM
Nc1ncnc2c3c(n(-c4ccc(CC(=O)Nc5cc(C(F)(F)F)ccc5F)cc4)c12)CCC3 ... 10 to 200 nM

Consider now this further compound.
The reported IC50 of the compound COc1ccc(NC(=O)Cc2ccc(-n3c4c(c5ncnc(N)c53)COC4)cc2)cc1C(F)(F)F was 10 to 200 nM

---

target: Macrophage colony-stimulating factor 1 receptor (Homo sapiens, UniProt P07333); experiment: Displacement of kinase tracer 236 from recombinant human His-tagged CSF1R cytoplasmic domain (538 to 910 residues) expressed in baculovirus-infected insect cells measured after 5 hrs by TR-FRET based LanthaScreen assay
Sequence (P07333 whole entry, the tested form may be a part): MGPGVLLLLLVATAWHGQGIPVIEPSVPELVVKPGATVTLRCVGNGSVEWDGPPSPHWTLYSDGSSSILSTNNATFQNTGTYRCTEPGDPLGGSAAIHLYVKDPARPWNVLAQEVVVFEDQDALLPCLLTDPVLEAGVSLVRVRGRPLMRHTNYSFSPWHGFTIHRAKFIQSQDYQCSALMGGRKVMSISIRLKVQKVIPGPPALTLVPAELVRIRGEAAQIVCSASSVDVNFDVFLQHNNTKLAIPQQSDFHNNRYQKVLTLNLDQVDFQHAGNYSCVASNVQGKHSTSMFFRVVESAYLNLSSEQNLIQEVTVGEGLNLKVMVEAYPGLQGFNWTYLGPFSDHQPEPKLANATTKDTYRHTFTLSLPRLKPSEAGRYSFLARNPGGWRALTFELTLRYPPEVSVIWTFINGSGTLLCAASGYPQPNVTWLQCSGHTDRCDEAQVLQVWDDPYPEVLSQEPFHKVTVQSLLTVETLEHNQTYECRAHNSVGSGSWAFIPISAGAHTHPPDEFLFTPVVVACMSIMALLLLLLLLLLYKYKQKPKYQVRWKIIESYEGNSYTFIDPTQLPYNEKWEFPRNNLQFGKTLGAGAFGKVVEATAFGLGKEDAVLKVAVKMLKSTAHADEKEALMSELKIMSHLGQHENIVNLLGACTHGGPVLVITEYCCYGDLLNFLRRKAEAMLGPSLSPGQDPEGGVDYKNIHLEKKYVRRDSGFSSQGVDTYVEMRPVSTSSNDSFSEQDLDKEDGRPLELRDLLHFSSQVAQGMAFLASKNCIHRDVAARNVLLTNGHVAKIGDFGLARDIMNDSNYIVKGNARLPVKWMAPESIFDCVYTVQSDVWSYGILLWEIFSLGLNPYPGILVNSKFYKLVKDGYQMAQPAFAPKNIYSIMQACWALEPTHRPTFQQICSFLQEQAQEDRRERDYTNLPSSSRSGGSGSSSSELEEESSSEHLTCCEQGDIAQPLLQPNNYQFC
pIC50: −log10 of the molar value.
Entries and their pIC50

The following compounds have reported results that may help.
Nc1ncnc2c3c(n(-c4ccc(NC(=O)Cc5cccc(OC(F)(F)F)c5)cc4)c12)CCC3 ... > 8.00
COc1cc(-n2c3c(c4ncnc(N)c42)CCC3)ccc1NC(=O)Cc1ccc(C)c(F)c1 ... > 8.00
Nc1ncnc2c3c(n(-c4ccc(CC(=O)NC5CCCCC5)cc4)c12)CCC3 ... 6.70 to 8.00
Cc1ccc(CC(=O)Nc2ccc(-n3c4c(c5ncnc(N)c53)CCC4)cc2)c(F)c1 ... > 8.00
COc1ccc(NC(=O)Cc2ccc(-n3c4c(c5ncnc(N)c53)CCC4)cc2OC)nn1 ... > 8.00

The reported pIC50 of the compound COc1cc(-n2c3c(c4ncnc(N)c42)CCC3)ccc1CC(=O)N1CCOc2ccccc21 was > 8.00

The reported pIC50 of the compound COc1cc(-n2c3c(c4ncnc(N)c42)CCC3)ccc1NC(=O)Cc1cc(C(F)(F)F)no1 was > 8.00

The reported pIC50 of the compound COc1cc(-n2c3c(c4ncnc(N)c42)COC3)ccc1NC(=O)CN1CCOc2ccccc21 was < 6.70

The reported pIC50 of the compound Nc1ncnc2c3c(n(-c4ccc(NC(=O)Cc5ccc(C(F)(F)F)nn5)cc4)c12)COC3 was 6.70 to 8.00

---

target: Macrophage colony-stimulating factor 1 receptor (Homo sapiens); assay: Displacement of kinase tracer 236 from recombinant human His-tagged CSF1R cytoplasmic domain (538 to 910 residues) expressed in baculovirus-infected insect cells measured after 5 hrs by TR-FRET based LanthaScreen assay
Entries and their IC50

COc1cc(-n2c3c(c4ncnc(N)c42)CCC3)ccc1NC(=O)Cc1cnccn1 ... > 0.2 µM
Nc1ncnc2c3c(n(-c4ccc(NC(=O)Cc5ccc(Cl)cc5)cc4)c12)CCC3 ... < 0.01 µM
COc1cc(-n2c3c(c4ncnc(N)c42)COC3)ccc1NC(=O)Cc1ccc(C)c(F)c1 ... < 0.01 µM

The reported IC50 of the molecule Nc1ncnc2c3c(n(-c4ccc(CC(=O)N5CCOc6ccccc65)cc4)c12)CCC3 was < 0.01 µM

The reported IC50 of the molecule COc1cc(-n2c3c(c4ncnc(N)c42)COC3)ccc1NC(=O)Cc1ccc(C(F)(F)F)nn1 was 0.01 to 0.2 µM

The reported IC50 of the molecule Nc1ncnc2c3c(n(-c4ccc(NC(=O)Cn5ccnc5)cc4)c12)CCC3 was > 0.2 µM
